Tested on: Escherichia coli
Experiment: Antimicrobial activity against Escherichia coli K-12 MG1655 after 24 hrs by double dilution method
Format: functional
Settings: K-12 MG1655, 24 h
attributeMeasured: MIC

Memo: CC(C)SCC(=O)NCC(=O)NCc1ccccc1 , reported MIC: > 128 µg/mL

Memo: CCCC(=O)N(Cc1ccccc1)C(C(=O)NCCCCN)c1ccc(Br)cc1 (stereo not drawn) , reported MIC: 256 µg/mL

Memo: NCCCCNC(=O)C(c1ccc(Br)cc1)N(Cc1ccccc1)C(=O)CCS (stereo not drawn) , reported MIC: 32 µg/mL

Memo: CN(C)[C@@H]1C(O)=C(C(N)=O)C(=O)[C@@]2(O)C(O)=C3C(=O)c4c(O)cccc4[C@@](C)(O)[C@H]3C[C@@H]12 , reported MIC: < 2 µg/mL

Memo: N#Cc1ccc(C(=O)N(CCCc2ccccc2)CC(=O)N2CCNCC2)cc1 , reported MIC: > 128 µg/mL

Memo: N=C(N)NCCCC[C@H](O)CC(=O)N[C@@H](O)C(=O)NCCCCNCCCN , reported MIC: 50 µg/mL

Memo: CCC(C)C(=O)NCC(=O)N1CCN(Cc2ccccc2)CC1 (stereo not drawn) , reported MIC: > 128 µg/mL

Memo: CC(C)C1CCC(C(=O)NCC(=O)NCc2ccccc2)CC1 (stereo not drawn) , reported MIC: > 128 µg/mL
